Recorded values, source PubChem BioAssay.

# test_protocol: P. aeruginosa biofilm formation inhibitors, primary screen, PAO1 strain, BacTiter-Glo luminescence, LB-PBS (AID 1144)
# applied_conditions: 12 h, higher = more signal

- structure: "COc1cc2c(cc1OC)CN(C(=O)[C@H]1[C@@H]3C(=O)O[C@@H](c4ccccc4)[C@@H](c4ccccc4)N3[C@@H](c3ccc(O)cc3)[C@]13C(=O)Nc1ccccc13)CC2"
  z-score: -0.219
- structure: "CC(C)(C)OC(=O)CC[C@]1(C(=O)N2CCOCC2)N=C(c2ccc(OCCCO)cc2)O[C@H]1c1ccccc1N=[N+]=[N-]"
  z-score: 1.17
- structure: "C=C[C@@H](COC(=O)OC(C)(C)C)N(Cc1ccc(OC)cc1)S(=O)(=O)c1ccc(Br)cc1"
  z-score: 0.551
- structure: "[N-]=[N+]=Nc1ccccc1[C@@H]1OC(c2ccc(OCCCO)cc2)=N[C@]1(CCS(=O)(=O)c1ccccc1)C(N)=O"
  z-score: 0.378
- structure: "C=C[C@H](CO)NS(=O)(=O)c1ccc(Br)cc1"
  z-score: 0.564
- structure: "C#C[C@H](O[Si](C#Cc1ccc(Oc2ccccc2)cc1)(C(C)C)C(C)C)c1ccccc1"
  z-score: -0.0203
- structure: "C=CCOC(=O)[C@@H]1[C@H]2C(=O)O[C@H](c3ccccc3)[C@H](c3ccccc3)N2[C@H](c2ccc(OCCOC(=O)[C@@H]3C[C@@H]4C(=O)NCC(=O)N4[C@@H]3c3ccc(O)cc3)cc2)[C@@]12C(=O)Nc1ccc(I)cc12"
  z-score: -0.725

* * *

# subject_of_test: Epidermal growth factor receptor (Homo sapiens) (UniProt P00533)
# Sequence (P00533 whole entry, looked up): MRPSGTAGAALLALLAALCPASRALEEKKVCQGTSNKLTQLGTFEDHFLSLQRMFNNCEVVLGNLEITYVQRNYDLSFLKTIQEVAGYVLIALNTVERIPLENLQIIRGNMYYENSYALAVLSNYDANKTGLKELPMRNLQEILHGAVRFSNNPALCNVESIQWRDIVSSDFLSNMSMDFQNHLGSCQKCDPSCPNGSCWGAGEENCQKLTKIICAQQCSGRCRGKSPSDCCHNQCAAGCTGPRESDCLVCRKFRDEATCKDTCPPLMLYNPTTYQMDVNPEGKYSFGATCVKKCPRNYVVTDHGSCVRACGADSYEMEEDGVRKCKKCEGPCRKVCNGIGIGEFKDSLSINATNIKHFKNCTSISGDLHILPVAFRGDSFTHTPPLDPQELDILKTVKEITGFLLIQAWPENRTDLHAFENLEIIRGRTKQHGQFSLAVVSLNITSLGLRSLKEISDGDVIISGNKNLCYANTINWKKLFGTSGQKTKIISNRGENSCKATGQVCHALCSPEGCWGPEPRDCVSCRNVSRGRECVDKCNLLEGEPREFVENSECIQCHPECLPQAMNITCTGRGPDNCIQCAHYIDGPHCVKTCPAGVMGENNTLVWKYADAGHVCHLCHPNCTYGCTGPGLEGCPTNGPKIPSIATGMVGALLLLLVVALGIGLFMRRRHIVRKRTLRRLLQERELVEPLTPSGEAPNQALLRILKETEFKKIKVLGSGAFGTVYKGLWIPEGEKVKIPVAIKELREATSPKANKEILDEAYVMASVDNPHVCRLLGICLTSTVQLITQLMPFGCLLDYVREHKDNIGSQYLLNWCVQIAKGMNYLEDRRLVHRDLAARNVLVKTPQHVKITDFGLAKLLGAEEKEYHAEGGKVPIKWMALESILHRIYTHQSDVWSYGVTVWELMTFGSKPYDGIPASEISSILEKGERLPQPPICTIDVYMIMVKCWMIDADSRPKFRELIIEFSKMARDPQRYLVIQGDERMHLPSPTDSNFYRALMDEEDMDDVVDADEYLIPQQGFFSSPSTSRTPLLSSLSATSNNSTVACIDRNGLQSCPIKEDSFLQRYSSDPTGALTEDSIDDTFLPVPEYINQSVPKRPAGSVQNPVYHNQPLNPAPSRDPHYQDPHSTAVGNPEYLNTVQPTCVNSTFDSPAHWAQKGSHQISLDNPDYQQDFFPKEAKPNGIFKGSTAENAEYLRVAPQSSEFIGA
# test_protocol: EGFR binders on small-molecule microarrays, primary screen, biochemical, small-molecule microarray, 635 nm fluorescence (AID 1104);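 further: score merges 667 nm emission intensity with spot signal to noise over triplicate slides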
# applied_conditions: EGFR binding, higher = more signal
Let's look at some compounds and their measured composite z-score.

- compound: "Oc1ccc2cc[n+](Cc3sc4ccccc4c3Cl)cc2c1"
  subject_of_test: "Epidermal growth factor receptor (Homo sapiens) (UniProt P00533)"
  composite z-score: -0.0568
- compound: "C=CCC(OC(C)=O)[C@@H]1[C@@H](N(Cc2cc3ccccc3o2)C(=O)c2cccc3ccccc23)c2cc(OCCCO)ccc2N1C(=O)c1ccc(-c2ccccc2)cc1 (some centres undefined)"
  subject_of_test: "Epidermal growth factor receptor (Homo sapiens) (UniProt P00533)"
  composite z-score: -0.0077
- compound: "Cc1ccc(S[C@]2(C(=O)NC3CC3)CC(=O)N(Cc3ccccc3)[C@@H]2c2ccc(CO)cc2I)cc1"
  subject_of_test: "Epidermal growth factor receptor (Homo sapiens) (UniProt P00533)"
  composite z-score: -1.34
- compound: "COc1cc2c(cc1OC)CN(C(=O)[C@@H]1[C@H]3C(=O)O[C@H](c4ccccc4)[C@H](c4ccccc4)N3[C@H](c3ccc(O)cc3)[C@@]13C(=O)Nc1ccccc13)CC2"
  subject_of_test: "Epidermal growth factor receptor (Homo sapiens) (UniProt P00533)"
  composite z-score: -0.0444
- compound: "COCCOC(=O)N1C(=O)[C@@]2(c3ccccc31)[C@H](c1ccc(O)cc1)N1[C@H](c3ccccc3)[C@H](c3ccccc3)OC(=O)[C@H]1[C@@H]2C(=O)Nc1nc2ccccc2s1"
  subject_of_test: "Epidermal growth factor receptor (Homo sapiens) (UniProt P00533)"
  composite z-score: 0.252
- compound: "COc1cc2c(cc1O)C(C1CC1)N(Cc1sc3ccccc3c1Cl)CC2 (centres undefined)"
  subject_of_test: "Epidermal growth factor receptor (Homo sapiens) (UniProt P00533)"
  composite z-score: -0.0122
- compound: "COC(=O)[C@@]1(Cc2ccc(OC)cc2)[C@H]2c3cc(C(=O)N4CCCC4)n(Cc4ccc(C)c(F)c4F)c3C[C@H]2CN1C(=O)c1ccccc1"
  subject_of_test: "Epidermal growth factor receptor (Homo sapiens) (UniProt P00533)"
  composite z-score: -0.139
- compound: "CC(C)C[C@@H]1NC(=O)[C@H](C(C)C)NC(=O)[C@@]23C(=O)N[C@@H](Cc4ccccc4)C2[C@H](C)[C@@]2(C)O[C@H]2C3/C=C/CC/C=C/CNC1=O (some centres undefined)"
  subject_of_test: "Epidermal growth factor receptor (Homo sapiens) (UniProt P00533)"
  composite z-score: 0.467
- compound: "CC(C)[Si]1(C(C)C)O[C@@H](c2ccccc2)c2cc(-c3ccc(-c4ccc(Cl)c(Cl)c4)o3)nc(-c3ccccc3)c21"
  subject_of_test: "Epidermal growth factor receptor (Homo sapiens) (UniProt P00533)"
  composite z-score: 0.0831
- compound: "CCCC[C@@H]1C[C@H]1[C@@H](NC(=O)c1cccs1)c1ccc(-c2ccccc2)cc1"
  subject_of_test: "Epidermal growth factor receptor (Homo sapiens) (UniProt P00533)"
  composite z-score: -0.0136
- compound: "COc1ccc(CCNC(=O)[C@@]2(Sc3ccc(C)cc3)CC(=O)N(C(C)C)[C@@H]2c2ccc(CO)cc2I)cc1"
  subject_of_test: "Epidermal growth factor receptor (Homo sapiens) (UniProt P00533)"
  composite z-score: -0.719
- compound: "COCCOC(=O)N1C(=O)[C@@]2(c3cc(C#CCC(C(=O)OC)C(=O)OC)ccc31)[C@H](C(=O)N1CCN(c3ncccn3)CC1)[C@H]1C(=O)O[C@H](c3ccccc3)[C@H](c3ccccc3)N1[C@@H]2c1ccccc1OCCO"
  subject_of_test: "Epidermal growth factor receptor (Homo sapiens) (UniProt P00533)"
  composite z-score: 0.926
- compound: "CCCC#C[Si](O[C@H](CC)c1cn(Cc2cccc(Cl)c2)nn1)(C(C)C)C(C)C"
  subject_of_test: "Epidermal growth factor receptor (Homo sapiens) (UniProt P00533)"
  composite z-score: 0.484
- compound: "O=C1C[C@@](C(=O)NCC(F)(F)F)(c2ccc([N+](=O)[O-])cc2)[C@@H](c2ccc(CO)cc2I)N1C1CCCCC1"
  subject_of_test: "Epidermal growth factor receptor (Homo sapiens) (UniProt P00533)"
  composite z-score: 0.515
